- MEASURED_ON: MOZ PHD1/2 fingers (aa 207-318) (human), Q92794
- Sequence (Q92794 207-318): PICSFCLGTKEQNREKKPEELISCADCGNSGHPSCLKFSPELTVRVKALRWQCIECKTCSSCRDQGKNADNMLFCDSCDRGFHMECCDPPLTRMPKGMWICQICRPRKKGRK
- ASSAY: other fluorescence titration
PARAMETER_MEASURED: Kd
Include the unit after the number when you answer.

For the binder shown here, ARTKQTARKSTG (modifications not checked) [unmodified histone H3 peptide (length not stated for the experiment)] , give the reported Kd.
3.9 µM
